Listing of entries alongside the reported T/C.
Test system: P388 leukemia ip, CD2F1 mice, survival T/C
experimental details: NCI In Vivo Anticancer Drug Screen. Data for tumor model P388 Leukemia (intraperitoneal) in CD2F1 (CDF1) mice
condition notes: endpoint: median survival time; dose: 25.0 mg/kg/injection; schedule: Q01DX009 (ip); vehicle: Klucel (hydroxypropylcellulose) (HPC); higher = longer survival
Inconclusive results and toxic doses are left out.
measurement label: T/C

COc1cc2ccnc(C3(O)CCN(C)CC3)c2cc1OC
93 % of control
CSc1nc2ccc(NC(=O)CCC(=O)O)cc2s1
107 % of control
O=S(=O)(NN=C(c1ccccc1)c1ccccc1)c1ccccc1
99 % of control
C=C(C)C1CCC2=CC(CC3(C)OC3C3=CC(C(=O)OC)=C(C1)O3)OC2=O (stereo not drawn)
104 % of control
Cc1ccc2nc(NC(=S)SSC(=S)Nc3nc4ccc(C)cc4s3)sc2c1
94 % of control
C=CCc1ccc(O)cc1
93 % of control
CC1CCC(C(C)C2C(O)CC3C4CCC5CC(N)CCC5(C)C4CCC32C)=NC1 (stereo not drawn) (tested in a mixture with another compound)
105 % of control
CC12CCC3c4ccc(O)cc4CCC3C1C/C(=C\C(=O)O)C2=O (stereo not drawn)
111 % of control
O=C(/C=C/c1ccc(Cl)c(Cl)c1)c1cccc(O)c(=O)c1
102 % of control
C=CCSc1nc2ccc(N3C(=O)CCC3=O)cc2s1
103 % of control
CC(C)=CCC1(O)C(=O)c2ccccc2C1(O)C(=O)O (stereo not drawn)
101 % of control
O=C(O)/C=C/C(=O)Nc1ccc(Cl)c(Cl)c1
105 % of control
C[n+]1c(-c2cccc(-c3ccccc3)c2)c2cc([N+](=O)[O-])ccc2c2ccccc21
109 % of control

Data provenance is PubChem BioAssay AID330.
